Tested on: MCF7
Assay: NCI tumour cell line growth inhibition, 48 h
Calls of active or inactive are those of the source. Cut-off read from the data, not from the text of the source: active = GI50 up to about 1.1 µM and inactive = higher.
Reported GI50 values for a set of molecules
measuredQuantity: GI50

INSERT INTO measurements (molecule, recordedmeasurement) VALUES
  ('c1ccc(Sc2nc(Sc3ccccc3)nc(Sc3ccccc3)n2)cc1', '26.5 µM (inactive)'),
  ('COc1nc2ccc(Cl)c(C(O)c3ccccc3)c2nc1OC (stereo unspecified)', '29.7 µM (inactive)'),
  ('COC(=O)c1sc2c(Cl)c(Cl)sc2c1Cl', '50.5 µM (inactive)'),
  ('OC1C=C2C3CN(Cc4cc5c(cc43)OCO5)[C@H]2C[C@@H]1O (stereo partly specified)', '2.96 µM (inactive)'),
  ('CN(CCNC(=O)c1nn(-c2ccccc2)c2c1Cc1ccccc1-2)CCNC(=O)c1nn(-c2ccccc2)c2c1Cc1ccccc1-2', '1.64 µM (inactive)'),
  ('CC1(C)COC(c2ccccc2-c2ccccc2)=N1', '> 100 µM (inactive)');

---

Tested on: UACC-257
Test: NCI tumour cell line growth inhibition, 48 h
The source made the active and inactive calls. Cut-off read from the data, not from the text of the source: active = GI50 up to about 1.1 µM and inactive = higher.
measuredQuantity: GI50

INSERT INTO assay_data (compound, systemname, measuredquantity, recordedmeasurement) VALUES
  ('O=C1NC(=S)N/C1=C\c1ccc(Sc2ccccc2C(=O)O)s1', 'UACC-257', 'GI50', '> 100 µM (inactive)'),
  ('COC(=O)n1c(=O)nc2c3c(ncn21)Oc1c(c(-c2ccccc2)nn1-c1ccccc1)C3c1ccc(Cl)cc1 (stereo not drawn)', 'UACC-257', 'GI50', '1.89 µM (inactive)'),
  ('Cc1ccccc1NC(=O)C1C(=O)N(c2ccccc2C)C(=O)/C1=N\NC(N)=O (stereo not drawn)', 'UACC-257', 'GI50', '> 100 µM (inactive)');

---

System: HOP-62
Assay: NCI tumour cell line growth inhibition, 48 h
The source made the active and inactive calls. Cut-off read from the data, not from the text of the source: active = GI50 up to about 1.1 µM and inactive = higher.
Labels: active, inactive

INSERT INTO results (compound, classname) VALUES
  ('Cc1ccc(NC(=O)C(=O)CC(=O)c2c(C)[n+]([O-])c3ccccc3[n+]2[O-])cc1C', 'inactive'),
  ('C=C(C)C1CC/C(C)=C/CC[C@]2(C)O[C@H]2CC/C(COC(C)=O)=C\[C@@H]1O (stereo partly drawn)', 'inactive'),
  ('CC(C)c1cc(C(C)C)c(S(=O)(=O)N/N=C2\CC3CCC2(C)C3(C)C)c(C(C)C)c1 (stereo not drawn)', 'inactive'),
  ('NC(=S)N/N=C/C1NCCC2CCCCC21 (stereo not drawn)', 'active'),
  ('O=C(/C=C/c1ccccc1)/C=N/N1C(=S)N(c2ccccc2)C(=N\c2ccccc2)/C1=N/c1ccccc1', 'inactive'),
  ('Cc1nc2c(nc1C)C(=O)c1ccccc1C2=O', 'inactive'),
  ('FC(F)(F)c1cccc(-c2nc3ccccc3c3c2[C@@]2(N4CCCC4)CCCC[C@@H]32)c1', 'inactive'),
  ('Nc1ccc2c(c1)NCCN2', 'inactive'),
  ('Cc1ccc2[nH]c(=O)c(C(C#N)c3ccccc3)nc2c1 (stereo not drawn)', 'inactive'),
  ('CCOC(=O)C1(C#N)CC1', 'inactive'),
  ('Cc1c(CN)c(C)c(CN)c(C)c1CN', 'inactive'),
  ('NCCSC(c1ccccc1)c1ccccc1', 'inactive'),
  ('C=CCCC1(C)CCCNC1=S (stereo not drawn)', 'inactive'),
  ('COC(=O)C1=C(O)c2cc(OC)c(OC)c(OC)c2C(c2ccc3c(c2)OCO3)[C@@H]1C(=O)OC (stereo partly drawn)', 'inactive'),
  ('S=C(Nc1ccccc1)N(/N=C/C=C/c1ccccc1)c1nnc(-c2ccccc2)c(-c2ccccc2)n1', 'inactive'),
  ('Cc1cn2cc(-c3cccs3)nc2s1', 'inactive'),
  ('COC(=O)C1=C(C)NC(C)=C(C(=O)OC)C1c1cccc(N=O)c1', 'inactive'),
  ('Nc1nc(Cl)cc(NCC2(CO)CC(=O)C2)n1', 'inactive'),
  ('N/C(=N\n1c(=S)[nH]c2ccccc2c1=O)Nn1c(=S)[nH]c2ccccc2c1=O', 'inactive'),
  ('Cc1ccccc1NC(=O)C1C(=O)N(c2ccccc2C)C(=O)/C1=N\NC(N)=O (stereo not drawn)', 'inactive'),
  ('C=C1CC(COc2cc(=O)oc3ccccc23)(c2ccccc2)OC1=O (stereo not drawn)', 'inactive'),
  ('COC(=O)C(C(=O)C(=O)Nc1nc2ccc(OC)cc2s1)c1cnc2ccccc2n1 (stereo not drawn)', 'inactive'),
  ('COc1cccc2c(=O)c3c(n(C)c12)OC(C(C)C)C3 (stereo not drawn)', 'inactive'),
  ('Nc1nc(=O)n(C2OC(CO)C(O)C2O)cc1F (stereo not drawn)', 'active'),
  ('Nc1ccc(Oc2ccc(C34CC5CC(C3)CC(c3ccc(Oc6ccc(N)cc6C(F)(F)F)cc3)(C5)C4)cc2)c(C(F)(F)F)c1', 'inactive'),
  ('Cc1ccc(C(=O)Cc2nc3ncccc3[nH]c2=O)cc1', 'inactive'),
  ('S=C1NN=C2C(=C3CCCC4C5CCCCC5N2C34)N1 (stereo not drawn)', 'inactive'),
  ('O=C1C=CC(=O)c2ncccc21', 'inactive'),
  ('N#CSC/C(Cl)=C/Cl.N#CSC/C(Cl)=C\Cl', 'inactive'),
  ('Cc1cc(C)nc(NS(=O)(=O)c2ccc(Nc3c4ccccc4nc4ccc(C(=O)Nc5ccc(S(=O)(=O)N=C(N)N)cc5)cc34)cc2)n1', 'inactive'),
  ('CO[C@H]1C[C@H](O[C@H]2CC[C@]3(C=O)[C@H]4CC[C@]5(C)[C@@H](C6=CC(=O)OC6)CC[C@]5(O)[C@@H]4CC[C@]3(O)C2)O[C@H](C)[C@H]1O', 'active'),
  ('CN(C)CCOc1ccc2[nH]c(C(=O)N3CC(CCl)c4ccc(N)cc43)cc2c1 (stereo not drawn)', 'active'),
  ('c1ccc(Sc2nc(Sc3ccccc3)nc(Sc3ccccc3)n2)cc1', 'inactive');

---

Reported GI50 values for a set of molecules
Tested on: M14
Assay: NCI tumour cell line growth inhibition, 48 h
Calls of active or inactive are those of the source. Cut-off read from the data, not from the text of the source: active = GI50 up to about 1.1 µM and inactive = higher.
measuredQuantity: GI50

INSERT INTO assay_data (molecule, systemname, recordedmeasurement) VALUES
  ('N#CN1C2CCC1CC(=O)C2', 'M14', '> 100 µM (inactive)'),
  ('NC1=NN(c2ccccc2)C(=O)C1C(=O)C(=O)Nc1ccccc1 (stereo not drawn)', 'M14', '> 100 µM (inactive)'),
  ('CC(C)(C)c1cc(-c2cc(C(C)(C)C)[nH]n2)[nH]n1', 'M14', '> 100 µM (inactive)'),
  ('C=CC(COC(=O)C(C)(C)OC(C)=O)c1ccc(OC(=O)C(C)C)c(OC)c1 (stereo not drawn)', 'M14', '6.43 µM (inactive)'),
  ('CC(=O)Nc1ccc(C2CC(c3ccc([N+](=O)[O-])cc3)=Nc3ccccc3S2)cc1 (stereo not drawn)', 'M14', '13.5 µM (inactive)'),
  ('COC(=O)[C@@H]1CS(=O)(=O)C(C(C)C)N1C(C)=O (stereo partly drawn)', 'M14', '> 100 µM (inactive)'),
  ('Cc1ccc(O)cc1.Cc1cccc(O)c1.Cc1ccccc1O [CRESOL]', 'M14', '> 100 µM (inactive)'),
  ('CC1(C)C2CC(O)C1(C)CC2=O (stereo not drawn)', 'M14', '> 100 µM (inactive)'),
  ('COc1ccc(NC(=O)/C(Cc2cc(=O)oc3cc(O)ccc23)=N\NC(C)(C)C)c(OC)c1', 'M14', '> 100 µM (inactive)'),
  ('CCOC(=O)NC(=O)c1cn(CCN2CCN(C(=O)NCCCCCCNC(=O)N3CCN(CCn4cc(C(=O)NC(=O)OCC)c(=O)n(CCN(CC)CC)c4=O)CC3)CC2)c(=O)n(CCC(CC)CC)c1=O', 'M14', '> 100 µM (inactive)'),
  ('CCCCOC(=O)NC(=O)c1cn(CCSCCOC(=O)NCCCCCCNC(=O)OCCSCCn2cc(C(=O)NC(=O)OCCCC)c(=O)[nH]c2=O)c(=O)[nH]c1=O', 'M14', '58.9 µM (inactive)'),
  ('CSc1cc(Br)ccc1-n1c(C(=O)c2ccccc2)c(SC)n(-c2ccccc2)c1=O', 'M14', '96.2 µM (inactive)'),
  ('O=[N+]([O-])c1cccc(CSc2nc(O)c3nc[nH]c3n2)c1', 'M14', '> 100 µM (inactive)');

---

System: HCC 2998
Test: NCI tumour cell line growth inhibition, 48 h
Active and inactive are the calls of the source. No stated cut-off is given here; in the data, active = GI50 up to about 1.1 µM and inactive = higher.
Labels: active, inactive

INSERT INTO assay_data (compound, classname) VALUES
  ('O=C(NCCN1CCOCC1)c1ccc(I)cc1', 'inactive'),
  ('NC(=O)c1cc(C2OC(CO)C(O)C2O)nn1-c1ccc([N+](=O)[O-])cc1 (stereo unspecified)', 'inactive'),
  ('CC1(C)CC[C@]2(C(=O)O)[C@H](O)C[C@]3(C)C(=CC[C@@H]4[C@@]5(C)CC[C@H](OC6OC(C(=O)O)C(O)C(O)C6O)C(C)(C)[C@@H]5CC[C@]43C)[C@@H]2C1 (stereo partly specified)', 'inactive'),
  ('CC(C)(C)OC(=O)c1ccc(NCC2=C(Br)C(=O)C=CC2=O)cc1', 'inactive'),
  ('CCOc1ccc(NC2=NC(=O)C(CC(=O)Nc3ccc(Cl)cc3Cl)S2)cc1 (stereo unspecified)', 'inactive'),
  ('N#CN1C2CCC1CC(=O)C2', 'inactive'),
  ('C(=N\c1ccc(-c2nc3ccccc3[nH]2)cc1)/c1ccco1', 'inactive'),
  ('O=C(Nc1ccc2[nH]c(C(=O)N3CC(CCl)c4c3cc([N+](=O)[O-])c3ccccc43)cc2c1)c1cc2ccccc2o1 (stereo unspecified)', 'inactive'),
  ('Cc1cccc(-c2cc(O)c3ccc(C)nc3n2)c1', 'active'),
  ('COC(=O)c1sc(=S)sc1SCc1cccc(CSc2sc(=S)sc2C(=O)OC)c1', 'inactive'),
  ('CN(C)CCCn1c2c3ccccc3ccc2c2oc(=O)c3ccccc3c21', 'inactive');
